The following compounds are shown together with reported mortality at 10 ppm values.
Tested on: Diabrotica balteata
ASSAY_TEXT: Transovarial effects on Diabrotica balteata adults fed on sprayed bean plants (% egg mortality)
Type: in vivo
EXPERIMENTAL_CONDITIONS: Diabrotica balteata; 10 ppm; egg laying period 6; read-out: % egg mortality: on egg laying period 6

| COMPOUND | mortality at 10 ppm |
| --- | --- |
| O=C(NC(=O)c1c(F)cccc1F)Nc1cc(Cl)c(OC(F)(F)C(F)F)c(Cl)c1 | 10% |
| O=C(NC(=O)c1c(F)cccc1F)Nc1cc(Cl)c(F)c(Cl)c1F | 14% |
| O=C(NC(=O)c1c(F)cccc1F)Nc1cc(Cl)c(OC(F)(F)C(F)C(F)(F)F)cc1Cl (stereo not drawn) | 9% |
| O=C(NC(=O)c1c(F)cccc1F)Nc1ccc(OC(F)(F)C(F)OC(F)(F)F)c(Cl)c1 (single isomer, unassigned; (+)) | 13% |
| O=C(NC(=O)c1c(F)cccc1F)Nc1ccc(Cl)cc1 | 12% |
| O=C(NC(=O)c1c(F)cccc1F)Nc1ccc(Oc2ccc(C(F)(F)F)cc2Cl)cc1F | 8% |

---

System: Diabrotica balteata
ASSAY_TEXT: Transovarial effects on Diabrotica balteata adults fed on sprayed bean plants (% egg mortality)
Type: in vivo
EXPERIMENTAL_CONDITIONS: Diabrotica balteata; 10 ppm; egg laying period 4; read-out: % egg mortality: on egg laying period 4
The following compounds are shown together with reported mortality at 10 ppm values.

| COMPOUND | mortality at 10 ppm / % |
| --- | --- |
| O=C(NC(=O)c1c(F)cccc1F)Nc1cc(Cl)c(F)c(Cl)c1F | 11 |
| O=C(NC(=O)c1c(F)cccc1F)Nc1cc(Cl)c(OC(F)(F)C(F)C(F)(F)F)cc1Cl (stereo not shown) | 17 |
| O=C(NC(=O)c1c(F)cccc1F)Nc1ccc(OC(F)(F)C(F)OC(F)(F)F)c(Cl)c1 (single isomer, unassigned; (+)) | 50 |
| O=C(NC(=O)c1c(F)cccc1F)Nc1cc(Cl)c(OC(F)(F)C(F)F)c(Cl)c1 | 8 |

---

Test system: Diabrotica balteata
ASSAY_TEXT: Transovarial effects on Diabrotica balteata adults fed on sprayed bean plants (% egg mortality)
Assay type: in vivo
EXPERIMENTAL_CONDITIONS: Diabrotica balteata; 50 ppm; egg laying period 7; read-out: % egg mortality: on egg laying period 7
The following compounds are shown together with reported mortality at 50 ppm values.
VALUE_TYPE: mortality at 50 ppm (%)

| COMPOUND | REPORTED |
| --- | --- |
| O=C(NC(=O)c1c(F)cccc1F)Nc1cc(Cl)c(OC(F)(F)C(F)C(F)(F)F)cc1Cl (stereo not shown) | 8 |
| O=C(NC(=O)c1c(F)cccc1F)Nc1ccc(Cl)cc1 | 8 |
| O=C(NC(=O)c1c(F)cccc1F)Nc1ccc(Oc2ccc(C(F)(F)F)cc2Cl)cc1F | 11 |
| O=C(NC(=O)c1c(F)cccc1F)Nc1ccc(OC(F)(F)C(F)OC(F)(F)F)c(Cl)c1 (single isomer, unassigned; (+)) | 100 |
